# assay-target: T1, RANKL expressed on the surface of 293 cells (UniProt O14788 1-317, limits assumed)
# T1 construct: whole, on cells; also called RANKL-transfected 293 cells; cells expressing RANKL
# T1 sequence (looked up): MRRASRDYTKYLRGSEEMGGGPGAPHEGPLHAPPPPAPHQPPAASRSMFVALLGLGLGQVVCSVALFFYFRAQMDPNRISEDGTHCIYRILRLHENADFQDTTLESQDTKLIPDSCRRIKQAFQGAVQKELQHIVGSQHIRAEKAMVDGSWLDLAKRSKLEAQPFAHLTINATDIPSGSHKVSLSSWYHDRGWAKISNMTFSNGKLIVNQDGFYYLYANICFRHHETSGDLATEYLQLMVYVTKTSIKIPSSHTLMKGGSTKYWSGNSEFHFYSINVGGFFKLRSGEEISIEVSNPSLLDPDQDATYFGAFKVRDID
# test-protocol: flow cytometry (MFI) on RANKL-transfected 293 cells
readout: EC50 (mg/L)

binder	readout-units	quantitative-readout
clone 388 rabbit anti-RANKL antibody (antibody, V domains shown) VH: QSVEESGGRLVTPGTPLTLTCTVSGFSLSSGVVSWVRQAPGKGLEWIGYAWSGGPTYYANWAKGRFTISKSSTTVDLKITSPTTADTATYFCARGYNGMDPWGPGTLVTVSS VL: DMTQTPASVEVAVGGTVTIKCQASQNIGSNLAWYQQKPGQPPKLLIYKASTLASGVPSRFRGSGSGTEFTLAISDLECADAATYYCQQGYTTKDVVNPFGGGTEVVVK	mg/L	0.665
clone 318 rabbit anti-RANKL antibody (antibody, V domains shown) VH: QDQLKESGGGLVTPGGTLTLTCTASGFSLGSNGMSWVRQAPGKGLEWIGYIYSGSSPYYASWAKGRFTISKTSSTTVDLKMTSLTTEDTATYFCAGHAKGGGWYLDIWGPGTLVTVSL VL: DMTQTPASVSAAVGGTVTINCQASQSIGSNLGWYQQKPGQPPKLLIYGASTLASGVSSRFKGSGSGTHFAFTISDVECTDAATYYCQQAYSVGNVDNAFGGGTEVVVK	mg/L	0.164
clone 379 rabbit anti-RANKL antibody (antibody, V domains shown) VH: QEQLKESGGGLVTPGGTLTLTCTASRFSLINIGMSWVRQAPGRGLEWIGYIYSGGSPYYANWAKGRFTISRTSTTVDLKMTSLTTEDTATYFCARHASDGGWYLDIWGPGTLVTVSL VL: DMIQTPASVEVAVGGTVTINCQASQSIGSNLAWYQQKPGQPPKLLIYLASTLPSGVPSRFKGSGSGTQFTFTISDVECTDAATYYCQQAYTASNVDNAFGGGTEVVVK	mg/L	0.221
clone 299 rabbit anti-RANKL antibody (antibody, V domains shown) VH: QSLEESGGRLVTPGTPLTLTCTVSGIDLSSSLMTWVRQAPGKGLEWIGYIWSGGAPFYASWAKGRFTISKTSSTTVDLKMTSLTTEDTATYFCAARYTDSGFDALDPWGPGTLVTVSS VL: DMTQTPASVEAAVGGTVTIKCQASQSIGSYLSWYHQKPGQPPKLLIYRASTLASGVPSRFKGSGSGTQFTLTISDLECADAATYYCQQGYSANVDNAFGGGTEVVVK	mg/L	0.207

The measured values listed here are drawn from patent US20160032001A1.
